- TARGET SYSTEM: T1, human CD3 (human, UniProt P07766 23-207; P04234 22-171; P09693 23-182)
- T1 construct: whole, on cells; also called hCD3; CD3 on Jurkat cells
- T1 sequence (P07766 23-207, chain 1 of 3): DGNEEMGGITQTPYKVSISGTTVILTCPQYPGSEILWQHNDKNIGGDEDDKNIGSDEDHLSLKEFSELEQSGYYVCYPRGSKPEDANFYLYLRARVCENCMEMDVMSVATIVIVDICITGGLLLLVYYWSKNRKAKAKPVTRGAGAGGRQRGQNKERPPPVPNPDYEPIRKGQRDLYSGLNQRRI
- T1 sequence (P04234 22-171, chain 2 of 3): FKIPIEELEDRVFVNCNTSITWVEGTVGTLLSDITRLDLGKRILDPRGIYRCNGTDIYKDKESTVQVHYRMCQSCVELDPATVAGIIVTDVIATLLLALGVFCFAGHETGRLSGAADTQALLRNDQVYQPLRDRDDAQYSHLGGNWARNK
- T1 sequence (P09693 23-182, chain 3 of 3): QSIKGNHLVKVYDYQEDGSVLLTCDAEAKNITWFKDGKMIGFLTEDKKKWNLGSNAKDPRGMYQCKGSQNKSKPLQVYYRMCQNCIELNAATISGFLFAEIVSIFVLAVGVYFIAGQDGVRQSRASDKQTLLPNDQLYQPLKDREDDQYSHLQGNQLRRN
- METHOD: FACS on Jurkat cells
Would you mind telling me the reported EC50 of each entry?
Answers are plain numbers, in pM.

BINDER: hu40E9-L2H4 (antibody, V domains shown, humanized 40-C12-C10-E9) VH: EVQLVQSGAEVKKPGSSVKVSCKASGYTFSSYVIHWVRQAPGQGLEWIGYINPYNDVIKYNEKFKGRATLTSDKSTSTAYMELSSLRSEDTAVYYCARDSYYSYDGFAYWGQGTLVTVSS VL: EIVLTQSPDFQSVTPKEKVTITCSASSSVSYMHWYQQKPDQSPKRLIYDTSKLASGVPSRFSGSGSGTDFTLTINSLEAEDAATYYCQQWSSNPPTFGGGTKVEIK
UNIT STRING: pM
EC50: 860
//
BINDER: hu40E9-L2H2 (antibody, V domains shown, humanized 40-C12-C10-E9) VH: EVQLVQSGAEVKKPGSSVKVSCKASGYTFSSYVIHWVRQAPGQGLEWMGYINPYNDVIKYNEKFKGRVTITADKSTSTAYMELSSLRSEDTAVYYCARDSYYSYDGFAYWGQGTLVTVSS VL: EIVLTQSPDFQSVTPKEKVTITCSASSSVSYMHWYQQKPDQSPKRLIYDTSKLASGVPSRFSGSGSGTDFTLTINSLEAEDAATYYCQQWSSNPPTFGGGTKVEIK
UNIT STRING: pM
EC50: 810

Lookup: May I ask what EC50 has been recorded for hu40E9-L2H3-G106A.H (antibody, V domains shown) VH: EVQLVQSGAEVKKPGSSVKVSCKASGYTFSSYVIHWVRQAPGQGLEWMGYINPYNDVIKYNEKFKGRVTLTSDKSTSTAYMELSSLRSEDTAVYYCARDSYYSYDAFAYWGQGTLVTVSS VL: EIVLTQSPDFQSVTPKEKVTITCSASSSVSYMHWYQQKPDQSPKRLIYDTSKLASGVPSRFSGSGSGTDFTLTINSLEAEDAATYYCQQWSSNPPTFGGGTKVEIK ?
Found: 2390
